Assay: Compound was tested for acute toxicity in mice, after intravenous administration of the compound.
Type: organism-based
Conditions: mouse, in vivo
value-kind: LD50 (mg/kg)
Your answer should be a plain number; it is taken to be in mg/kg.

### Prompt Reported LD50 for `COc1cc2c(cc1OC)[C@H]1NCCC[C@H]1[C@H]2c1cccnc1` : what is it?
### Response 30

---

Assay: Acute toxicity in mice, after intraperitoneal administration.
Format: organism-based
Conditions: mouse, in vivo, ip
value-kind: log10(LD50) (log10 of the value in mg/kg)
Please be aware that the numbers have been log10-transformed from LD50 in mg/kg.

Field: example entries. Status: answers known.
[[record]]
input_smiles = "CN1CCC[C@H]2[C@@H](c3ccc(N)cc3)c3ccccc3[C@H]21"
obs_value = 0.85

[[record]]
input_smiles = "c1ccc([C@@H]2c3ccccc3[C@H]3NCCC[C@@H]23)cc1"
obs_value = 1.43


### Prompt Reported log10(LD50) for `Cc1ccc([C@H]2c3ccccc3[C@H]3NCCC[C@@H]23)cc1N` : what is it?
### Response 1.65

### Prompt Reported log10(LD50) for `CCCN1CCC[C@H]2[C@H](c3ccccc3)c3ccccc3[C@H]21` : what is it?
### Response 1.38

### Prompt Reported log10(LD50) for `CN(C)c1ccc([C@H]2c3cc(O)ccc3[C@H]3NCCC[C@@H]23)cc1` : what is it?
### Response 1.83

Attribution: ChEMBL document CHEMBL1122631
